// values below are reported Final purity
- experiment: Physicochemical stability test of free form and 5 salts (60° C., 40° C./75% humidity, light)
- run_conditions: 40° C./75% RH, 1 w; HPLC
- Description: In the case of a light stability test, the vial was stored in a light stability test chamber while being not closed with a lid, and exposed to a total illuminance of 1.2 million lux-hr. A vial light-shielded with aluminum foil was used as an experimental control (Dark control). For stability assessment, state assessment by visual observation, purity assessment using HPLC, and crystalline form assessment using XRPD were conducted, and results thereof are shown in Table 7. […]
Numbers only; they are read as %.

// known answers, use as guide
[
  {
    "compound": "Cc1ccc(S(=O)(=O)O)cc1.O=S1(=O)CCN(Cc2cc(NC3CCOCC3)c3[nH]c(-c4ccccc4)cc3c2)CC1 [Tosylate]",
    "endpoint_label": "Final purity",
    "data_value": 99.00
  },
  {
    "compound": "O=C(O)/C=C\\C(=O)O.O=S1(=O)CCN(Cc2cc(NC3CCOCC3)c3[nH]c(-c4ccccc4)cc3c2)CC1 [Maleate]",
    "endpoint_label": "Final purity",
    "data_value": 96.26
  },
  {
    "compound": "CS(=O)(=O)O.O=S1(=O)CCN(Cc2cc(NC3CCOCC3)c3[nH]c(-c4ccccc4)cc3c2)CC1 [Mesylate]",
    "endpoint_label": "Final purity",
    "data_value": 96.71
  }
]

For the compound Cl.O=S1(=O)CCN(Cc2cc(NC3CCOCC3)c3[nH]c(-c4ccccc4)cc3c2)CC1 [Hydrochloride] , what Final purity is on record?
99.40

---

- experiment: Oral administration pharmacokinetic test using mice
- run_conditions: mice, oral, 10 mg/kg
// values below are reported Cmax
Numbers only; they are read as ng/mL.

For the compound Cl.O=S1(=O)CCN(Cc2cc(NC3CCOCC3)c3[nH]c(-c4ccccc4)cc3c2)CC1 [Hydrochloride] , what Cmax is on record?
2381.1

For the compound O=S1(=O)CCN(Cc2cc(NC3CCOCC3)c3[nH]c(-c4ccccc4)cc3c2)CC1 [Sulfate] , what Cmax is on record?
3154.8

For the compound O=C(O)/C=C\C(=O)O.O=S1(=O)CCN(Cc2cc(NC3CCOCC3)c3[nH]c(-c4ccccc4)cc3c2)CC1 [Maleate] , what Cmax is on record?
3115.9

All figures here come from patent US20240199598A1.
